The values you see were collected from the Human Domainome abundance scans (Beltran et al. 2025).

Attribute: abundance fitness
B1: POU domain, class 5, transcription factor 1, residues 134 to 212; numbered along this chain, Q01860 (parent)
chain: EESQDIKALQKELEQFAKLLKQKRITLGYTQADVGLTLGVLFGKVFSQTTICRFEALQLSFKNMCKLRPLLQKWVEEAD

# Variants of: B1
# RUN_DESCRIPTION: abundance fitness (aPCA) (normalised: wild type 0, dead -1); higher = more abundant; growth selection in yeast, the domain comes from the species named
# TEST_SETTINGS: Homo sapiens

{"MONOMER_SEQUENCE": "EESQDIKALQKHLEQFAKLLKQKRITLGYTQADVGLTLGVLFGKVFSQTTICRFEALQLSFKNMCKLRPLLQKWVEEAD [E12H]", "abundance fitness": -0.051}
{"MONOMER_SEQUENCE": "EESQDIKALQKELMQFAKLLKQKRITLGYTQADVGLTLGVLFGKVFSQTTICRFEALQLSFKNMCKLRPLLQKWVEEAD [E14M]", "abundance fitness": -0.307}
{"MONOMER_SEQUENCE": "EESQDIKAPQKELEQFAKLLKQKRITLGYTQADVGLTLGVLFGKVFSQTTICRFEALQLSFKNMCKLRPLLQKWVEEAD [L9P]", "abundance fitness": 0.195}

Quick note, abundance fitness for EESYDIKALQKELEQFAKLLKQKRITLGYTQADVGLTLGVLFGKVFSQTTICRFEALQLSFKNMCKLRPLLQKWVEEAD [Q4Y] landed at 0.291

Quick note, abundance fitness for EESQDIKALQKELEQFAKLLKQKRITLGYTQADVGLTLGVLFGKVFSQTTIERFEALQLSFKNMCKLRPLLQKWVEEAD [C52E] landed at 0.086

Quick note, abundance fitness for EESQDIKQLQKELEQFAKLLKQKRITLGYTQADVGLTLGVLFGKVFSQTTICRFEALQLSFKNMCKLRPLLQKWVEEAD [A8Q] landed at 0.182

Quick note, abundance fitness for EESQDIKALQKELEQFAKLLKQKRITLGYTQADVGLTLGVLFGKVFSQTTICRFEAPQLSFKNMCKLRPLLQKWVEEAD [L57P] landed at -0.005

Quick note, abundance fitness for EESQDIKALQKELEQFAKLLKQKRIKLGYTQADVGLTLGVLFGKVFSQTTICRFEALQLSFKNMCKLRPLLQKWVEEAD [T26K] landed at -0.414

Quick note, abundance fitness for EESQDIKALQKELEQFAKLLKQKRITLGYTQADVGLTLGVLFGKVFSQTTICRFEALQLSFKNGCKLRPLLQKWVEEAD [M64G] landed at -0.621

Quick note, abundance fitness for EESQDIKAAQKELEQFAKLLKQKRITLGYTQADVGLTLGVLFGKVFSQTTICRFEALQLSFKNMCKLRPLLQKWVEEAD [L9A] landed at -0.066
